experiment: Test substance levels / bioavailability (AUC) in systemic circulation of telemetrized dTG rats; type: in vivo; details: double transgenic (dTG), rat, topical; TD 10 mg in DMSO (33 mg/kg); blood samples at T0h, T4h, T24h; read-out: AUC24h
reportedMetric: AUC(0-t)

COCCCc1cc(CN(C(=O)[C@H]2CNCC[C@@H]2c2ccn(C)c(=O)c2)C2CC2)cc(Br)c1C (relative stereo)	2.9 µM·h

* * *

Target: recombinant renin in human plasma (Homo sapiens)
Construct: purchased Proteos
Sequence (P00797 67-406): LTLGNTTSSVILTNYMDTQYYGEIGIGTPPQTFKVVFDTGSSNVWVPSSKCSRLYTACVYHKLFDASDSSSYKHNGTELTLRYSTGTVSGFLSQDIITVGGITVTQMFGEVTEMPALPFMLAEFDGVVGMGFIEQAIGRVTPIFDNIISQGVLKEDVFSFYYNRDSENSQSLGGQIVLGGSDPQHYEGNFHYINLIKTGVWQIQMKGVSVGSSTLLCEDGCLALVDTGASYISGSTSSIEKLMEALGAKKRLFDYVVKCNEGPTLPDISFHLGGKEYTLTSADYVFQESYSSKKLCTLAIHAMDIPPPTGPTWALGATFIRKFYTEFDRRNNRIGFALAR
Assay: Inhibition of renin in human plasma
Format: biochemical
Details: human EDTA plasma, 1 nM recombinant renin added, 37° C., 1 hour; read-out: Human Renin IC50 (plasma)
pIC50: −log10 of the molar value.
Each item that follows carries a reported pIC50.
reportedMetric: pIC50

COCCc1ccc(Cl)c(CN(C(=O)[C@H]2CNCC[C@]2(OC)c2ccn(C)c(=O)c2)C2CC2)c1 (relative stereo)	8.49
Cn1ccc([C@@H]2CCNC[C@H]2C(=O)N(Cc2cn(Cc3ccncc3)c3cccc(F)c23)C2CC2)cc1=O (relative stereo)	9.30
COCCCc1ccc(SC)c(CN(C(=O)[C@H]2CNCC[C@@H]2c2ccn(C)c(=O)c2)C2CC2)c1 (relative stereo)	7.91
COCCCc1cc(CCCOC)c(Cl)c(CN(C(=O)[C@H]2CNCC[C@@H]2c2ccn(C)c(=O)c2)C2CC2)c1 (relative stereo)	9.30
COCCCc1cc(CN(C(=O)[C@H]2CNCC[C@@H]2c2ccn(C)c(=O)c2)C2CC2)cc(Br)c1C (relative stereo)	8.89
COCCCc1cc(CN(C(=O)[C@@H]2CNCC[C@H]2c2ccn(C)c(=O)c2)C2CC2)c2ccccc2c1 (relative stereo)	8.74
